experiment: Solubility of pesticides in solvents (pesticide powder added in 2% stepwise increments); assay type: physicochemical; details: solvent ethyl 3-ethoxypropionate; concentration just prior to the one where the powder is not dissolved; no more than 2% lower than actual solubility
Label rule met when Solubility in Inventive Solvent 1 is at or above 40 weight %; anything below gets rule not met.

- Molecule: "CC(C)N1C(=O)N(c2ccccc2)CS/C1=N\\C(C)(C)C"
  Assigned label: "rule not met"
- Molecule: "CCOP(=S)(OCC)Oc1nc(Cl)c(Cl)cc1Cl"
  Assigned label: "rule met"
- Molecule: "CC(C)(C)C(=O)C(Oc1ccc(Cl)cc1)n1cncn1 (stereo not shown)"
  Assigned label: "rule not met"
- Molecule: "CC(C)(C)C(O)(CCc1ccc(Cl)cc1)Cn1cncn1 (stereo not shown)"
  Assigned label: "rule not met"
- Molecule: "COC(=O)N(OC)c1ccccc1COc1ccn(-c2ccc(Cl)cc2)n1"
  Assigned label: "rule met"
- Molecule: "Cc1c(COC(=O)[C@@H]2[C@H](/C=C(\\Cl)C(F)(F)F)C2(C)C)cccc1-c1ccccc1 (racemic)"
  Assigned label: "rule met"
